// data source = patent US20160022668A1

test system: HeLa (cervical cancer); test: Sulphorhodamine B cytotoxicity test, HeLa line; assay type: cell-based; details: 72 hours incubation, sulphorhodamine B; average of three determinations; read-out: Cytotoxic activity, IC50, HeLa (cervical cancer)
parameter: pIC50
pIC50 is a log-scale quantity: -log10 of the concentration expressed in molar.

stdin: // pIC50 lookup, key: C#CCO[C@@H](c1ccnc2ccccc12)[C@H]1C[C@@H]2CCN1C[C@@H]2C=C [PCN, 9-O-propargylcinchonine]
stdout: 4.98
